Entries and their melting point values follow.

Consider the reported melting point for these compounds:
CN(C)CCOCc1cc2c(s1)-c1cccc(Cl)c1Oc1ccccc1-2 :: 122 °C
CN(C)CCCOCc1cc2c(s1)-c1cccc(Cl)c1Oc1ccccc1-2 :: 124 to 128 °C
CN(C)CCOCc1cc2c(s1)-c1ccccc1Oc1ccccc1-2.Cl :: 131 to 133 °C
Cl.c1ccc2c(c1)Oc1ccccc1-c1sc(COCCN3CCOCC3)cc1-2 :: 157 to 158 °C
CN(C)CCCOCc1cc2c(s1)-c1ccccc1Oc1ccccc1-2.Cl :: 120 to 122 °C

Query: melting point; subject: Cl.c1ccc2c(c1)Oc1ccccc1-c1sc(COCCN3CCCCC3)cc1-2
Result: 117 to 123 °C

Origin of values: patent US6897211B2
